# assay_details: AUC in C57 mouse at 10 mg/kg, iv
# Format: ADME, organism-based
# Design: dose 10 mg/kg, route intravenous
# particulars: plasma
measured_endpoint: AUC

smiles_text	result_value
CNc1nc(N)nc2nc(-c3c(Oc4ccccc4)cccc3C(F)(F)F)ccc12	6.97 µg·h/mL

* * *

# assay_details: Clearance in C57 mouse at 5 mg/kg, iv
# Format: ADME, organism-based
# Design: dose 5 mg/kg, route intravenous
# particulars: in vivo
measured_endpoint: clearance (mL/min/kg)

smiles_text	measured_endpoint	result_value
CNc1nc(N)nc2nc(-c3ccccc3C(F)(F)F)ccc12	clearance	61

* * *

# assay_details: Volume of distribution in C57 mouse at 10 mg/kg, iv
# Type: ADME, organism-based
# Design: dose 10 mg/kg, route intravenous
# particulars: in vivo
measured_endpoint: Vd (L/kg)

smiles_text	result_value
CNc1nc(N)nc2nc(-c3c(Oc4ccccc4)cccc3C(F)(F)F)ccc12	0.9

* * *

# assay_details: Half life in C57 mouse at 50 mg/kg, po
# Assay type: ADME, organism-based
# Design: dose 50 mg/kg, route oral
# particulars: in vivo
Quick reference for half-life among some compounds

smiles_text	half-life / h
CNc1nc(N)nc2nc(-c3c(Oc4ccccc4)cccc3C(F)(F)F)ccc12	1.3
CNc1nc(N)nc2nc(-c3ccccc3C(F)(F)F)ccc12	7.2

* * *

# assay_details: Cmax in C57 mouse at 50 mg/kg, po
# Type: ADME, organism-based
# Set-up: dose 50 mg/kg, route oral
# particulars: in vivo
measured_endpoint: Cmax

smiles_text	result_value
CNc1nc(N)nc2nc(-c3c(Oc4ccccc4)cccc3C(F)(F)F)ccc12	2200 ng/mL
CNc1nc(N)nc2nc(-c3ccccc3C(F)(F)F)ccc12	3530 ng/mL
